Reported IC50 is given for each of the following molecules.
# system: mouse VISTA (mVISTA) (Mus musculus)
# Construct: expressed in transfected cells; host or cells: Human embryonic kidney 293T cells
# assay-remarks: Cell-Based Binding High-Content Assay For mVISTA (HC CBA mVISTA)
# run-parameters: 293T cells expressing mouse VISTA; competition with biotinylated peptide (2 nM); read-out: CBA mVISTA IC50
Positions of bridges follow the written chain, without caps; N, C: chain ends. Non-standard residues stand in square brackets, D forms with d. Residues, ends and D or L forms follow the SMILES beside them. Ahp(2) = CCCCC[C@H](N)C(=O)O; NMeNle = CCCC[C@H](NC)C(=O)O; NHexGly = CCCCCCNCC(=O)O; Nle = CCCC[C@H](N)C(=O)O

molecule	IC50 / nM
CCCCCCN1CC(=O)N[C@@H](Cc2ccc(O)cc2)C(=O)N[C@@H](CCCC)C(=O)N[C@@H](CC(N)=O)C(=O)N[C@@H](CCCNC(=N)N)C(=O)N(C)[C@@H](CCCC)C(=O)N[C@@H](CCCCC)C(=O)N2CCC[C@H]2C(=O)N[C@@H](C(C)C)C(=O)N[C@@H](CC(=O)O)C(=O)N[C@H](C(=O)NCC(=O)O)CSCC(=O)N[C@@H](Cc2ccccc2)C(=O)N[C@@H](Cc2ccc(O)cc2)C(=O)N[C@@H](CC(=O)O)C1=O [Example 1083] ({CH2CO}-FYD[NHexGly]Y[Nle]NR[NMeNle][Ahp(2)]PVDCG-OH; thioether N-14)	39.1
CCCCCCN1CC(=O)N[C@@H](Cc2ccc(O)cc2)C(=O)N[C@@H](CC(C)C)C(=O)NCC(=O)N[C@@H](CCCNC(=N)N)C(=O)N(C)[C@@H](CCCC)C(=O)N[C@@H](CCCCC)C(=O)N2CCC[C@H]2C(=O)N[C@@H](C(C)C)C(=O)N[C@@H](CO)C(=O)N[C@H](C(=O)NCC(=O)O)CSCC(=O)N[C@@H](Cc2ccccc2)C(=O)N[C@@H](Cc2ccc(O)cc2)C(=O)N[C@@H](CC(=O)O)C1=O [Example 1080] ({CH2CO}-FYD[NHexGly]YLGR[NMeNle][Ahp(2)]PVSCG-OH; thioether N-14)	18.6
CCCCCCN1CC(=O)N[C@@H](Cc2ccc(O)cc2)C(=O)N[C@@H](CCCC)C(=O)N[C@@H](CC(=O)O)C(=O)N[C@@H](CCCNC(=N)N)C(=O)N(C)[C@@H](CCCC)C(=O)N[C@@H](CCCCC)C(=O)N2CCC[C@H]2C(=O)N[C@@H](C(C)C)C(=O)N[C@@H](CC(=O)O)C(=O)N[C@H](C(=O)N[C@@H](CCC(=O)O)C(N)=O)CSCC(=O)N[C@@H](Cc2ccccc2)C(=O)N[C@@H](Cc2ccc(O)cc2)C(=O)N[C@@H](CC(=O)O)C1=O [Example 1078] ({CH2CO}-FYD[NHexGly]Y[Nle]DR[NMeNle][Ahp(2)]PVDCE-NH2; thioether N-14)	17.7
CCCCCCN1CC(=O)N[C@@H](Cc2ccc(O)cc2)C(=O)N[C@@H](CCCC)C(=O)N[C@@H](CC(=O)O)C(=O)N[C@@H](CCCNC(=N)N)C(=O)N(C)[C@@H](CCCC)C(=O)N[C@@H](CCCCC)C(=O)N2CCC[C@H]2C(=O)N[C@@H](C(C)C)C(=O)N[C@@H](CC(=O)O)C(=O)N[C@H](C(=O)N[C@H](CC(=O)O)C(N)=O)CSCC(=O)N[C@@H](Cc2ccccc2)C(=O)N[C@@H](Cc2ccc(O)cc2)C(=O)N[C@@H](CC(=O)O)C1=O [Example 1075] ({CH2CO}-FYD[NHexGly]Y[Nle]DR[NMeNle][Ahp(2)]PVDC[dD]-NH2; thioether N-14)	19.1

----------
# system: mouse VISTA (mVISTA) (Mus musculus, UniProt Q9D659)
# Construct: expressed in transfected cells; host or cells: Human embryonic kidney 293T cells
# Sequence (Q9D659 33-308): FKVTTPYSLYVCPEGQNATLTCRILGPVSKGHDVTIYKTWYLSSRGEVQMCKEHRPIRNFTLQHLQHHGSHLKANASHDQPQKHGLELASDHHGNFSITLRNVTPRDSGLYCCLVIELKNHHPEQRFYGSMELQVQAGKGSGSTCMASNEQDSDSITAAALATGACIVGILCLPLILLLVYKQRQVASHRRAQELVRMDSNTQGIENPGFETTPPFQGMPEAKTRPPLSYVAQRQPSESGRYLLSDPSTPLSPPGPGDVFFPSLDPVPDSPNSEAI
# assay-remarks: Cell-Based Binding High-Content Assay For mVISTA (HC CBA mVISTA)
# run-parameters: 293T cells expressing mouse VISTA; competition with biotinylated peptide (2 nM); read-out: HC CBA mVISTA IC50
Positions of bridges follow the written chain, without caps; N, C: chain ends. Non-standard residues stand in square brackets, D forms with d. Residues, ends and D or L forms follow the SMILES beside them. Ahp(2) = CCCCC[C@H](N)C(=O)O; NHexGly = CCCCCCNCC(=O)O; Nle = CCCC[C@H](N)C(=O)O
Reported IC50 is given for each of the following molecules.
value-kind: IC50 (nM)

molecule	reading
CCCCCCN1CC(=O)N[C@@H](Cc2ccc(O)cc2)C(=O)N[C@@H](CCCC)C(=O)NCC(=O)N[C@@H](CCCNC(=N)N)C(=O)N[C@@H](CC(C)C)C(=O)N[C@@H](CCCCC)C(=O)N2CCC[C@H]2C(=O)N[C@@H](C(C)C)C(=O)NCC(=O)N[C@H](C(=O)NCC(=O)O)CSCC(=O)N[C@@H](Cc2ccccc2)C(=O)N[C@@H](Cc2ccc(O)cc2)C(=O)N[C@@H](CC(=O)O)C1=O [Example 1023] ({CH2CO}-FYD[NHexGly]Y[Nle]GRL[Ahp(2)]PVGCG-OH; thioether N-14)	31
CCCCCCN1CC(=O)N[C@@H](Cc2ccc(O)cc2)C(=O)N[C@@H](CCCC)C(=O)NCC(=O)N[C@@H](CCCNC(=N)N)C(=O)N[C@@H](CC(C)C)C(=O)N[C@@H](CCCCC)C(=O)N2CCC[C@H]2C(=O)N[C@@H](C(C)C)C(=O)N[C@@H](C)C(=O)N[C@H](C(=O)NCC(=O)O)CSCC(=O)N[C@@H](Cc2ccccc2)C(=O)N[C@@H](Cc2ccc(O)cc2)C(=O)N[C@@H](CC(=O)O)C1=O [Example 1007] ({CH2CO}-FYD[NHexGly]Y[Nle]GRL[Ahp(2)]PVACG-OH; thioether N-14)	15.1
CCCCCCN1CC(=O)N[C@@H](Cc2ccc(O)cc2)C(=O)N[C@@H](CC(C)C)C(=O)NCC(=O)N[C@@H](CCCNC(=N)N)C(=O)N[C@@H](Cc2ccc(O)cc2)C(=O)N[C@@H](CCCCC)C(=O)N2CCC[C@H]2C(=O)N[C@@H](C(C)C)C(=O)N[C@@H](CO)C(=O)N[C@H](C(=O)NCC(N)=O)CSCC(=O)N[C@@H](Cc2ccccc2)C(=O)N[C@@H](Cc2ccc(O)cc2)C(=O)N[C@@H](CC(=O)O)C1=O [Example 1094] ({CH2CO}-FYD[NHexGly]YLGRY[Ahp(2)]PVSCG-NH2; thioether N-14)	34.9
CCCCCCN1CC(=O)N[C@@H](Cc2ccc(O)cc2)C(=O)N[C@@H](CC(C)C)C(=O)N[C@@H](CC(N)=O)C(=O)N[C@@H](CCCNC(=N)N)C(=O)N[C@@H](CC(C)C)C(=O)N[C@@H](CCCCC)C(=O)N2CCC[C@H]2C(=O)N[C@@H](C(C)C)C(=O)N[C@@H](CO)C(=O)N[C@H](C(=O)NCC(N)=O)CSCC(=O)N[C@@H](Cc2ccccc2)C(=O)N[C@@H](Cc2ccc(O)cc2)C(=O)N[C@@H](CC(=O)O)C1=O [Example 1040] ({CH2CO}-FYD[NHexGly]YLNRL[Ahp(2)]PVSCG-NH2; thioether N-14)	5.4
CCCCCCN1CC(=O)N[C@@H](Cc2ccc(O)cc2)C(=O)N[C@@H](CC(C)C)C(=O)N[C@@H](CC(N)=O)C(=O)N[C@@H](CCCNC(=N)N)C(=O)N[C@@H](CC(C)C)C(=O)N[C@@H](CCCCC)C(=O)N2CCC[C@H]2C(=O)N[C@@H](C(C)C)C(=O)N[C@@H](C(C)C)C(=O)N[C@H](C(=O)N[C@@H](CO)C(=O)O)CSCC(=O)N[C@@H](Cc2ccccc2)C(=O)N[C@@H](Cc2ccc(O)cc2)C(=O)N[C@@H](CC(=O)O)C1=O [Example 1072] ({CH2CO}-FYD[NHexGly]YLNRL[Ahp(2)]PVVCS-OH; thioether N-14)	5.8
CCCCCCN1CC(=O)N[C@@H](Cc2ccc(O)cc2)C(=O)N[C@@H](CCCC)C(=O)N[C@@H](CC(=O)O)C(=O)N[C@@H](CCCNC(=N)N)C(=O)N[C@@H](CC(C)C)C(=O)N[C@@H](CCCCC)C(=O)N2CCC[C@H]2C(=O)N[C@@H](C(C)C)C(=O)N[C@@H](Cc2ccc(O)cc2)C(=O)N[C@H](C(=O)NCC(=O)O)CSCC(=O)N[C@@H](Cc2ccccc2)C(=O)N[C@@H](Cc2ccc(O)cc2)C(=O)N[C@@H](CC(=O)O)C1=O [Example 1071] ({CH2CO}-FYD[NHexGly]Y[Nle]DRL[Ahp(2)]PVYCG-OH; thioether N-14)	17.7
CCCCCCN1CC(=O)N[C@@H](Cc2ccc(O)cc2)C(=O)N[C@@H](CC(C)C)C(=O)NCC(=O)N[C@@H](CCCNC(=N)N)C(=O)N[C@@H](Cc2ccc(O)cc2)C(=O)N[C@@H](CCCCC)C(=O)N2CCC[C@H]2C(=O)N[C@@H](C(C)C)C(=O)N[C@@H](CC(=O)O)C(=O)N[C@H](C(=O)NCC(N)=O)CSCC(=O)N[C@@H](Cc2ccccc2)C(=O)N[C@@H](Cc2ccc(O)cc2)C(=O)N[C@@H](CC(=O)O)C1=O [Example 1096] ({CH2CO}-FYD[NHexGly]YLGRY[Ahp(2)]PVDCG-NH2; thioether N-14)	15.5
CCCCCCN1CC(=O)N[C@@H](Cc2ccc(O)cc2)C(=O)N[C@@H](CCCC)C(=O)NCC(=O)N[C@@H](CCCNC(=N)N)C(=O)N[C@@H](CC(C)C)C(=O)N[C@@H](CCCCC)C(=O)N2CCC[C@H]2C(=O)N[C@@H](C(C)C)C(=O)N[C@@H](CO)C(=O)N[C@H](C(=O)NCC(N)=O)CSCC(=O)N[C@@H](Cc2ccccc2)C(=O)N[C@@H](Cc2ccc(O)cc2)C(=O)N[C@@H](CC(=O)O)C1=O [Example 1050] ({CH2CO}-FYD[NHexGly]Y[Nle]GRL[Ahp(2)]PVSCG-NH2; thioether N-14)	29.9
